Recorded values, source paper PMC12016938.

test: Pharmacokinetic studies in rats (plasma and brain); type: in vivo; settings: rat, plasma, ip, 40 mg/kg, i.p. 40 mg/kg, 1h, individual rat

Line Notation: N[C@H](CNC(=O)C1(c2ccc(Cl)cc2)CCCC1)c1ccc(C(=O)Nc2ccncc2)cc1
concentration at 1 h (µM): 28.3

###

experiment: Pharmacokinetic studies in rats (plasma and brain); format: in vivo; details: rat, plasma, iv, 40 mg/kg, rat, i.v. 40 mg/kg, 2h, individual rat; read-out: Plasma concentration

Compound: N[C@H](CNC(=O)C1(c2ccc(Cl)cc2)CCCC1)c1ccc(C(=O)Nc2ccncc2)cc1 [CP612]
Quantity Unit: µM
concentration at 2 h: 11.3

###

test: Kinetic aqueous solubility; assay type: physicochemical; details: 0.1M phosphate-buffered saline (PBS), aqueous buffer, kinetic from dmso stock, 0.1M PBS, room temperature, 3 hours; read-out: Kinetic aqueous solubility
Readout Type: solubility kinetic at 3 h (µM)

Compound: N[C@H](CNC(=O)C1(c2ccc(Cl)cc2)CCCC1)c1ccc(C(=O)Nc2ccncc2)cc1 [CP612]
Numeric Readout: 7.41

###

assay: Pharmacokinetic studies in rats (plasma and brain); format: in vivo; details: rat, brain, ip, 40 mg/kg, rat, i.p. 40 mg/kg, 24h, mean all rats; read-out: Brain concentration
Readout Type: concentration at 24 h

Line Notation: N[C@H](CNC(=O)C1(c2ccc(Cl)cc2)CCCC1)c1ccc(C(=O)Nc2ccncc2)cc1
Result: 540 nM

###

Experiment: Pharmacokinetic studies in rats (plasma and brain)
Format: in vivo
Conditions: rat, brain, iv, 40 mg/kg, 40 mg/kg i.v., 2 hours; read-out: Brain/plasma concentration ratio
Excerpt: Because binding to plasma protein was approximately 90%, we predicted that the free concentration at each time point was 10 times lower than the measured plasma concentration. Pharmacokinetic studies in rats. Pharmacokinetics studies were contracted to the Drug Metabolism and Pharmacokinetics Core at Scripps Research. […] CP612 was detected with an API Triple Quad 5500 LC-MS/MS (SCIEX) using an MRM(+) method: CP612 (463/282, m/z) with carbamazepine (238/195.1, m/z) as an internal standard.

Compound: N[C@H](CNC(=O)C1(c2ccc(Cl)cc2)CCCC1)c1ccc(C(=O)Nc2ccncc2)cc1 [CP612]
Kp at 2 h: 0.16

###

Catalogue of half-life values
assay: Plasma stability; conditions: human, human plasma, Plasma stability t½ (min), 37°C
Readout Type: half-life

Molecule: CCN(CC)CCOC(=O)c1ccc(N)cc1 [Procaine, reference compound]
Readout Type: half-life
Result: 1.65 min

Molecule: N[C@H](CNC(=O)C1(c2ccc(Cl)cc2)CCCC1)c1ccc(C(=O)Nc2ccncc2)cc1
Readout Type: half-life
Result: 90.2 min

###

Experiment: Pharmacokinetic studies in rats (plasma and brain)
Assay type: in vivo
Conditions: rat, brain, iv, 40 mg/kg, rat, i.v. 40 mg/kg, 2h, mean of Plasma 2h, Brain 2h rats; read-out: Brain/Plasma
Source text: Because binding to plasma protein was approximately 90%, we predicted that the free concentration at each time point was 10 times lower than the measured plasma concentration. Pharmacokinetic studies in rats. Pharmacokinetics studies were contracted to the Drug Metabolism and Pharmacokinetics Core at Scripps Research. […] CP612 was detected with an API Triple Quad 5500 LC-MS/MS (SCIEX) using an MRM(+) method: CP612 (463/282, m/z) with carbamazepine (238/195.1, m/z) as an internal standard.

Line Notation: N[C@H](CNC(=O)C1(c2ccc(Cl)cc2)CCCC1)c1ccc(C(=O)Nc2ccncc2)cc1
Kp at 2 h: 0.163
